method.description: Solubility in phosphate-buffered saline (pH 7.2) at room temperature (Example 18)
test.parameters: phosphate-buffered saline, pH 7.2, aqueous buffer
assay.metric: solubility (mg/mL)
Use mg/mL as the unit, but write only the number.

Asked: Look at this compound and give its reported solubility. CC(=O)Nc1ccc(O)cc1 [Acetaminophen, N-(4-hydroxyphenyl)acetamide]
Given back: 13.1

###

method.description: Solubility via modified protocol with water bath equilibration (Example 17B), HPLC
Format: physicochemical
test.parameters: PEG-400/water (50% water), 19 °C, aqueous with cosolvent or surfactant or cyclodextrin, thermodynamic from solid
assay.metric: solubility at 40 min (mg/mL)
Use mg/mL as the unit, but write only the number.

Asked: Look at this compound and give its reported solubility at 40 min. `CC(=O)Nc1ccc(OC(=O)SCCS(=O)(=O)[O-])cc1.[Na+]`
Given back: 306

###

method.description: Solubility testing, initial protocol (Example 17A), HPLC
Type: physicochemical
test.parameters: thermodynamic from solid; Water, 18 ° C., initial protocol
assay.metric: solubility at 15 min (mg/mL)
Use mg/mL as the unit, but write only the number.

Asked: Look at this molecule and give its reported solubility at 15 min. CC(=O)Nc1ccc(OC(=O)SCCS(=O)(=O)[O-])cc1.[Na+] [Test Article A]
Given back: 280

###

method.description: Solubility testing, initial protocol (Example 17A), HPLC
Type: physicochemical
test.parameters: aqueous with cosolvent or surfactant or cyclodextrin, thermodynamic from solid; 50% Water, Ethanol, 18 ° C.
assay.metric: solubility at 15 min (mg/mL)
Use mg/mL as the unit, but write only the number.

Asked: Look at this compound and give its reported solubility at 15 min. `CC(=O)Nc1ccc(OC(=O)SCCS(=O)(=O)[O-])cc1.[Na+]`
Given back: 199

###

method.description: Solubility via modified protocol with water bath equilibration (Example 17B), HPLC
Type: physicochemical
test.parameters: water, 19 °C, thermodynamic from solid, Water Repeat, modified protocol
assay.metric: solubility at 40 min (mg/mL)
Use mg/mL as the unit, but write only the number.

Asked: Look at this compound and give its reported solubility at 40 min. `CC(=O)Nc1ccc(OC(=O)SCCS(=O)(=O)[O-])cc1.[Na+]`
Given back: 230

###

method.description: Solubility via modified protocol with water bath equilibration (Example 17B), HPLC
Assay type: physicochemical
test.parameters: pH 5 buffer, 19 °C, pH 5, aqueous buffer, thermodynamic from solid
assay.metric: solubility at 40 min (mg/mL)
Use mg/mL as the unit, but write only the number.

Asked: Look at this compound and give its reported solubility at 40 min. `CC(=O)Nc1ccc(OC(=O)SCCS(=O)(=O)[O-])cc1.[Na+]`
Given back: 226
